biological target: AChE (Homo sapiens, UniProt P22303); format: biochemical; conditions: 1 μM
Sequence (P22303 32-614): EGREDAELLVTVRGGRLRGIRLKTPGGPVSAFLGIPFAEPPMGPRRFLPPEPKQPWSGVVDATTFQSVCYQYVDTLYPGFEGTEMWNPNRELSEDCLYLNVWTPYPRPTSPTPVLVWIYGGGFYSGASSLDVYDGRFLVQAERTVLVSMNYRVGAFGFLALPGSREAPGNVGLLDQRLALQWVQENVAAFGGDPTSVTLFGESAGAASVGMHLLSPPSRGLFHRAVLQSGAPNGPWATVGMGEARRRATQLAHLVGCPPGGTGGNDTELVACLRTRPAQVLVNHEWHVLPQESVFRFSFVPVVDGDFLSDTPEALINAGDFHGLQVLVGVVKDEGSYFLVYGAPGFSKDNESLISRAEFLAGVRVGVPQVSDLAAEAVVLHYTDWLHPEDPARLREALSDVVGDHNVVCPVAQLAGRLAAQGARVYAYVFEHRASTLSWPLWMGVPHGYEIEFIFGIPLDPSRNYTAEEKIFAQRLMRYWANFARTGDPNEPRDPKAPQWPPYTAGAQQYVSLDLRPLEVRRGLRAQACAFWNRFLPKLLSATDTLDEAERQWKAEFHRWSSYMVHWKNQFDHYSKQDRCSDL
Decide using AChEI (%) 1 μM alone. Strictly below 30%: YES. Equal to or above 30%: NO.

# MOLECULE, CATEGORY_LABEL
rows = [
    ("C[C@@H](Cc1ccccc1)NC(=O)Oc1ccc2c(c1)[C@]1(C)CCN(C)[C@@H]1N2C", "NO"),
    ("COCCCC/C(=N\\OCCNC(=O)Oc1cccc([C@H](C)N(C)C)c1)c1ccc(C(F)(F)F)cc1", "YES"),
    ("C[C@H](Cc1ccccc1)N(C)C(=O)Oc1cccc([C@H](C)N(C)C)c1", "NO"),
    ("C[C@@H](c1cccc(OC(=O)N(C)[C@@H](C)Cc2ccccc2)c1)N(C)C", "NO"),
    ("C[C@@H](Cc1ccccc1)NC(=O)Oc1cccc([C@H](C)N(C)C)c1", "NO"),
    ("C[C@@H](c1cccc(OC(=O)N(C)CC[C@H](Oc2cccc3ccccc23)c2cccs2)c1)N(C)C", "NO"),
    ("Cc1ccccc1O[C@H](CCN(C)C(=O)Oc1cccc([C@H](C)N(C)C)c1)c1ccccc1", "YES"),
    ("C[C@@H](c1cccc(OC(=O)N[C@H]2C[C@@H]2c2ccccc2)c1)N(C)C (stereo in doubt)", "NO"),
    ("C[C@@H](c1cccc(OC(=O)N(C)CCC(Oc2ccc(C(F)(F)F)cc2)c2ccccc2)c1)N(C)C (stereo partly drawn)", "YES"),
    ("C[C@@H](c1cccc(OC(=O)N2CC[C@@H](c3ccc(F)cc3)[C@H](COc3ccc4c(c3)OCO4)C2)c1)N(C)C", "YES"),
    ("C#CCN(C(=O)Oc1cccc([C@H](C)N(C)C)c1)[C@H](C)Cc1ccccc1", "YES"),
    ("C[C@@H](c1cccc(OC(=O)N(C)CCCN2c3ccccc3CCc3ccccc32)c1)N(C)C", "NO"),
]
